test: Solubility in deionized water, UV absorbance at 254 nm with calibration curve
measurement kind: Water solubility mol/L

Study these solved cases before continuing.
Nc1nc2c(ncn2COCCO)c(=O)[nH]1 [[H2Acy][Doc] (7)] [acyclovir docusate] : 0.0131 (0) mol/L
Nc1nc2c(ncn2COCCO)c(=O)[nH]1 [[N1,1,1,16][Acy] (3)] [trimethylhexadecylammonium acyclovir] : 0.4957 (4) mol/L
Nc1nc2c(ncn2COCCO)c(=O)[nH]1 [[Cho][Acy] (1)] [choline acyclovir] : 3.1045 (81) mol/L

Any idea what its Water solubility mol/L is? The compound is Nc1nc2c(ncn2COCCO)c(=O)[nH]1 [Acyclovir, reference compound]
0.0063 (0) mol/L

Any idea what its Water solubility mol/L is? The compound is Nc1nc2c(ncn2COCCO)c(=O)[nH]1 [[P4,4,4,4][Acy] (4)] [tetrabutylphosphonium acyclovir]
1.6622 (41) mol/L
